test system: Pasteurella multocida PM 10775 (080130003051, BRD field isolate); assay: MIC, broth-microdilution (CLSI VET01-A4), strain PM 10775; type: cell-based; conditions: Pasteurella multocida strain PM 10775, broth-microdilution; unit assumed
attribute_measured: MIC PM 10775

Take a look at these entries with their results.
CC(C)([C@H](NC(=O)c1ccc(C#Cc2ccc(CNCc3cccs3)cc2)cc1)C(=O)NO)S(C)(=O)=O    ≤ 0.1 µg/mL
O=C(N[C@@H](CO)C(=O)NO)c1ccc(C#Cc2ccc(CN3CCC(c4ccccc4)CC3)cc2)cc1    ≤ 0.1 µg/mL

Returns the measured MIC PM 10775 for the input molecule. Input: COCCCNCc1ccc(C#Cc2ccc(C(=O)NC(C(=O)NO)C(C)(C)[N+](=O)[O-])cc2)cc1 (stereo not shown)
≤ 0.1 µg/mL

Returns the measured MIC PM 10775 for the input molecule. Input: "CON=C(C)[C@H](NC(=O)c1ccc(C#Cc2ccc(CNCc3cccs3)cc2)cc1)C(=O)NO"
0.4 µg/mL

* * *

test system: Pasteurella multocida PM 10775 (080130003051, BRD field isolate); assay: MIC, broth-microdilution (CLSI VET01-A4), strain PM 10775; assay type: cell-based; settings: Pasteurella multocida strain PM 10775, broth-microdilution; unit assumed
attribute_measured: MIC PM 10775

Take a look at these entries with their results.
CC(C)([C@H](NC(=O)c1ccc(C#Cc2ccc(CNCc3ccccc3)nc2)cc1)C(=O)NO)S(C)(=O)=O    ≤ 0.1 µg/mL
C=CCNCc1ccc(C#Cc2ccc(C(=O)N[C@H](C(=O)NO)C(C)(C)S(C)(=O)=O)cc2)s1    ≤ 0.1 µg/mL
CC(C)(O)[C@H](NC(=O)c1ccc(C#Cc2ccc(CNC3CC3)nc2)cc1)C(=O)NO    ≤ 0.1 µg/mL

Returns the measured MIC PM 10775 for the input compound. Input: "CSC(C)(C)[C@H](NC(=O)c1ccc(C#Cc2ccc(CNCc3cccnc3)cc2)cc1)C(=O)NO"
≤ 0.1 µg/mL

Returns the measured MIC PM 10775 for the input compound. Input: "CC(C)(O)[C@H](NC(=O)c1ccc(C#Cc2ccc(CN3CCOCC3)cc2)cc1)C(=O)NO"
≤ 0.1 µg/mL

Returns the measured MIC PM 10775 for the input compound. Input: "CSC(C)(C)[C@H](NC(=O)c1ccc(C#Cc2ccc(CNCc3ccncc3)s2)cc1)C(=O)NO"
≤ 0.1 µg/mL

Returns the measured MIC PM 10775 for the input compound. Input: "CC[C@H](C)[C@H](NC(=O)c1ccc(C#Cc2ccc(CNCc3cccs3)cc2)cc1)C(=O)NO"
≤ 0.1 µg/mL

Returns the measured MIC PM 10775 for the input compound. Input: "CON=C(C)[C@H](NC(=O)c1ccc(C#Cc2ccc(CNCc3ccc(C)cc3)cc2)cc1)C(=O)NO"
0.8 µg/mL

* * *

system: Pasteurella multocida PM 10775 (080130003051, BRD field isolate); assay: MIC, broth-microdilution (CLSI VET01-A4), strain PM 10775; assay type: cell-based; details: Pasteurella multocida strain PM 10775, broth-microdilution; unit assumed
attribute_measured: MIC PM 10775

Take a look at these entries with their results.
CC(C)(O)[C@H](NC(=O)c1ccc(C#Cc2ccc(CNCc3nccs3)s2)cc1)C(=O)NO [Compound 359]    0.2 µg/mL
CC[C@H](C)[C@H](NC(=O)c1ccc(C#Cc2cccc(CNC3CC3)c2)cc1)C(=O)NO [Compound 144]    0.4 µg/mL
CC(C)(O)[C@H](NC(=O)c1ccc(C#Cc2ccc(CNCc3ccco3)nc2)cc1)C(=O)NO [Compound 332]    ≤ 0.1 µg/mL
COc1ccc(CNCc2ccc(C#Cc3ccc(C(=O)N[C@H](C(=O)NO)C(C)(C)O)cc3)cc2)cc1 [Compound 224]    ≤ 0.1 µg/mL
Cc1ccc(CNCc2ccc(C#Cc3ccc(C(=O)NC(C(=O)NO)C(C)(C)[N+](=O)[O-])cc3)cc2)cc1 (stereo not shown) [Compound 283]    0.2 µg/mL

Form field: MIC PM 10775 recorded for C=CCNCc1ccc(C#Cc2ccc(C(=O)N[C@H](C(=O)NO)C(C)C)cc2)cc1 [Compound 94] with Pasteurella multocida PM 10775 (080130003051, BRD field isolate) (enter value)
≤ 0.1 µg/mL

Form field: MIC PM 10775 recorded for CN(Cc1ccccc1)Cc1ccc(C#Cc2ccc(C(=O)N[C@@H](CO)C(=O)NO)cc2)cc1 [Compound 86] with Pasteurella multocida PM 10775 (080130003051, BRD field isolate) (enter value)
≤ 0.1 µg/mL

* * *

system: Pasteurella multocida PM 10775 (080130003051, BRD field isolate); assay: MIC, broth-microdilution (CLSI VET01-A4), strain PM 10775; assay type: cell-based; settings: Pasteurella multocida strain PM 10775, broth-microdilution; unit assumed
attribute_measured: MIC PM 10775

CC[C@H](C)[C@H](NC(=O)c1ccc(C#Cc2ccc(CNCC#N)cc2)cc1)C(=O)NO [Compound 192]    ≤ 0.1 µg/mL

Returns the measured MIC PM 10775 for the input molecule. Input: COc1ccc(CNCc2cccc(C#Cc3ccc(C(=O)N[C@H](C(=O)NO)C(C)C)cc3)c2)cc1 [Compound 43]
0.4 µg/mL

Returns the measured MIC PM 10775 for the input molecule. Input: CC(C)([C@H](NC(=O)c1ccc(C#Cc2ccc(CN3CCOCC3)s2)cc1)C(=O)NO)S(C)(=O)=O [Compound 314]
≤ 0.1 µg/mL

Returns the measured MIC PM 10775 for the input molecule. Input: CC(C)(O)[C@H](NC(=O)c1ccc(C#Cc2ccc(CNCc3ccccc3)nc2)cc1)C(=O)NO [Compound 327]
≤ 0.1 µg/mL

Returns the measured MIC PM 10775 for the input molecule. Input: CSC(C)(C)[C@H](NC(=O)c1ccc(C#Cc2ccc(CNCc3ccccn3)s2)cc1)C(=O)NO [Compound 307]
≤ 0.1 µg/mL

Returns the measured MIC PM 10775 for the input molecule. Input: CC(=O)[C@H](NC(=O)c1ccc(C#Cc2ccc(CNCc3ccc(C)cc3)cc2)cc1)C(=O)NO [Compound 412]
0.4 µg/mL

Returns the measured MIC PM 10775 for the input molecule. Input: CCCNCc1ccc(C#Cc2ccc(C(=O)N[C@H](C(=O)NO)C(C)=NOC)cc2)cc1 [Compound 387]
1.6 µg/mL

* * *

test system: Pasteurella multocida PM 10775 (080130003051, BRD field isolate); assay: MIC, broth-microdilution (CLSI VET01-A4), strain PM 10775; assay type: cell-based; conditions: Pasteurella multocida strain PM 10775, broth-microdilution; unit assumed
Form field: MIC PM 10775 (one value per entry).
Return type: number; implicit unit µg/mL.

COc1ccc(CNCc2ccc(C#Cc3ccc(C(=O)N[C@H](C(=O)NO)C(C)(C)SC)cc3)cn2)cc1    0.2
CC(C)[C@H](NC(=O)c1ccc(C#Cc2cccc(CN3CCOCC3)c2)cc1)C(=O)NO    0.4

Let's switch to this compound now.
Form field: MIC PM 10775 recorded for "CSC(C)(C)[C@H](NC(=O)c1ccc(C#Cc2ccc(CNC3CCCC3)cc2)cc1)C(=O)NO" with Pasteurella multocida PM 10775 (080130003051, BRD field isolate) (enter value)
0.2

* * *

system: Pasteurella multocida PM 10775 (080130003051, BRD field isolate); test: MIC, broth-microdilution (CLSI VET01-A4), strain PM 10775; assay type: cell-based; details: Pasteurella multocida strain PM 10775, broth-microdilution; unit assumed
attribute_measured: MIC PM 10775

Take a look at these entries with their results.
CC(C)([C@H](NC(=O)c1ccc(C#Cc2ccc(CNCc3ccncc3)cc2)cc1)C(=O)NO)S(C)(=O)=O    ≤ 0.1 µg/mL
CC(C)(C(NC(=O)c1ccc(C#Cc2ccc(CNCC(F)(F)F)cc2)cc1)C(=O)NO)[N+](=O)[O-] (stereo not drawn)    ≤ 0.1 µg/mL

Returns the measured MIC PM 10775 for the input compound. Input: "CC[C@H](C)[C@H](NC(=O)c1ccc(C#Cc2ccc(CNCCOC)cc2)cc1)C(=O)NO"
≤ 0.1 µg/mL

Returns the measured MIC PM 10775 for the input compound. Input: "CC[C@H](C)[C@H](NC(=O)c1ccc(C#Cc2ccc(CNCc3cccnc3)cc2)cc1)C(=O)NO"
≤ 0.1 µg/mL

Returns the measured MIC PM 10775 for the input compound. Input: "O=C(N[C@@H](CO)C(=O)NO)c1ccc(C#Cc2ccc(CN3CCCCC3)cc2)cc1"
≤ 0.1 µg/mL

Returns the measured MIC PM 10775 for the input compound. Input: CC(C)(O)C(NC(=O)c1ccc(C#Cc2ccc(CNCc3cccs3)cc2)cc1)C(=O)NO (stereo not drawn)
≤ 0.1 µg/mL
